Tgt: GABA-A receptor; alpha-5/beta-3/gamma-2 (Homo sapiens) (UniProt P18507+P28472+P31644)
Run description: Percentage modulation of submaximal (EC20) response to GABA-A receptor alpha-5-beta-3-gamma-2 subunits expressed in Xenopus laevis oocytes
Type: functional, cell-based
Condition parameters: Oocyte
# Efficacy listing for each entry below

compound="CSc1ccc(-c2ccccn2)c2c1C(=O)CC(C)C2 (stereo not drawn)" measurement=-5%
compound=CCc1c(C(=O)OC)ncc2[nH]c3cc(OC)c(OC)cc3c12 measurement=-34%
compound="CC1CC(=O)c2c(Sc3cccs3)ccc(-c3ccccn3)c2C1 (stereo not drawn)" measurement=50%
compound="CCSc1ccc(-c2nccs2)c2c1C(=O)CC(C)C2 (stereo not drawn)" measurement=-8%
compound="CCSc1ccc(-c2cnccn2)c2c1C(=O)CC(C)C2 (stereo not drawn)" measurement=2%

GET Efficacy | system: GABA-A receptor; alpha-5/beta-3/gamma-2 (Homo sapiens) (UniProt P18507+P28472+P31644) | item: `CNC1=Nc2ccc(Cl)cc2C(c2ccccc2)=[N+]([O-])C1`
134%

GET Efficacy | system: GABA-A receptor; alpha-5/beta-3/gamma-2 (Homo sapiens) (UniProt P18507+P28472+P31644) | item: CCSc1ccc(-c2ccccn2)c2c1C(=O)CC(C)C2 (stereo not drawn)
2%

GET Efficacy | system: GABA-A receptor; alpha-5/beta-3/gamma-2 (Homo sapiens) (UniProt P18507+P28472+P31644) | item: CCSc1ccc(-c2ncco2)c2c1C(=O)CC(C)C2 (stereo not drawn)
5%

Data origin, for the record: ChEMBL document CHEMBL1146760
